The entries below are paired with their reported half-life at 1 uM.
test: Liver microsomal stability, human; type: in vitro ADME; conditions: liver microsomes, read-out: Half-lives

CC(C)(C)C[C@]1(c2ccc(-c3cnn(C(F)F)c3)cc2)NC(=N)N([C@H](COC(=O)NC2(C(F)(F)F)CC2)c2ccc(F)c(-n3ncnc3C(F)F)c2)C1=O [Compound 380] : ≥ 6.58 h

*Q* Consider the molecule COC(=O)N[C@H](C(=O)N[C@@H](Cc1ccccc1)[C@@H](O)CN(Cc1ccc(-c2ccccn2)cc1)NC(=O)[C@@H](NC(=O)OC)C(C)(C)C)C(C)(C)C [atazanavir, reference compound] . State its measured half-life at 1 uM.
*A* 0.433 to 1.78 h

*Q* Consider the molecule CC(C)(C)C[C@]1(c2ccc(-c3cnn(C(F)F)c3)cc2)NC(=N)N([C@H](COC(=O)NC2CC2)c2ccc(Cl)c(-c3nccc(=O)[nH]3)c2)C1=O [Compound 17] . State its measured half-life at 1 uM.
*A* ≥ 6.58 h

*Q* Consider the molecule CC(C)(C)C[C@]1(c2ccc(-c3cnn(C(F)F)c3)cc2)NC(=N)N([C@H](COC(=O)N[C@@H]2C[C@H]2C(F)(F)F)c2ccc(Cl)c(-n3ncnc3C(F)F)c2)C1=O (single isomer, unassigned) [Compound 331] . State its measured half-life at 1 uM.
*A* ≥ 6.58 h

*Q* Consider the molecule CC(C)(C#N)C[C@]1(c2ccc(-c3cnn(C(F)F)c3)cc2)NC(=N)N([C@H](COC(=O)NC2(C(F)(F)F)CC2)c2ccc(Cl)c(-n3ncnc3C(F)F)c2)C1=O [Compound 336] . State its measured half-life at 1 uM.
*A* ≥ 6.58 h

The reported numbers originate from patent US11352329B2.
